This section presents compounds with their documented log10 of GI50 values.
system: T47D; test: Growth inhibition of human T47D cells after 48 hrs by sulforhodamine B assay; type: functional
Hey, these are logged values: log10 of GI50, µM being the unit before logging.

Look over these answered cases.
{"columns": ["Compound structure", "Assay system", "Reported value"],
 "data": [
  ["COc1ccc(CNc2nc3cc(N)cc(N)c3nc2-c2ccccc2)cc1", "T47D", 0.45],
  ["COc1ccc(Oc2nc3cc(N)cc(N)c3nc2-c2ccccc2)cc1", "T47D", 1.18],
  ["Nc1cc(N)c2nc(-c3ccccc3)c(NCc3ccc(Cl)c(Cl)c3)nc2c1", "T47D", 1.29],
  ["COc1cc(CNc2nc3cc(N)cc(N)c3nc2-c2ccccc2)cc(OC)c1", "T47D", 0.22],
  ["Nc1cc(N)c2nc(-c3ccccc3)c(Sc3ccc(Cl)c(Cl)c3)nc2c1", "T47D", 1.12],
  ["COc1ccc(CNc2nc3cc(N)cc(N)c3nc2-c2ccccc2)cc1OC", "T47D", 0.65],
  ["COc1cc(OC)cc(Oc2nc3cc(N)cc(N)c3nc2-c2ccccc2)c1", "T47D", 0.37]
]}

Kindly review the next compound as well.
Recorded result, `Nc1cc(N)c2nc(-c3ccccc3)c(Oc3ccc(Cl)c(Cl)c3)nc2c1` , log10 of GI50: 1.39

====

Reported TGI by item:
assay: Growth inhibition of human Hs 578T cells after 48 hrs by sulforhodamine B assay; type: functional; conditions: read-out: pTGI (converted)

{"columns": ["Compound structure", "Measured endpoint", "Reported value"],
 "data": [
  ["Nc1cc(N)c2nc(-c3ccccc3)c(Oc3ccc(F)cc3)nc2c1", "TGI", "53.7 µM"],
  ["COc1ccc(Sc2nc3cc(N)cc(N)c3nc2-c2ccccc2)cc1", "TGI", "> 100 µM"]
]}

Shift focus to the following entry.
According to the records, this compound `COc1ccc(Oc2nc3cc(N)cc(N)c3nc2-c2ccccc2)cc1` displays TGI of > 100 µM

====

tested on: UACC-62; test: Growth inhibition of human UACC62 cells after 48 hrs by sulforhodamine B assay; type: functional; conditions: UACC-62, 48 h, read-out: pTGI (converted)
Measured endpoint: TGI (µM)
Field: numeric (µM). Do not append units.

{"columns": ["Compound structure", "Unit of measure", "TGI"],
 "data": [
  ["Nc1cc(N)c2nc(-c3ccccc3)c(Sc3ccc(Cl)c(Cl)c3)nc2c1", "µM", 42.7],
  ["COc1cc(CNc2nc3cc(N)cc(N)c3nc2-c2ccccc2)cc(OC)c1OC", "µM", 15.5],
  ["Nc1cc(N)c2nc(-c3ccccc3)c(Sc3ccc(F)cc3)nc2c1", "µM", 31.6],
  ["Nc1cc(N)c2nc(-c3ccccc3)c(Oc3ccc(Cl)c(Cl)c3)nc2c1", "µM", 47.9],
  ["COc1ccc(CNc2nc3cc(N)cc(N)c3nc2-c2ccccc2)cc1", "µM", 29.5]
]}

The measured TGI associated with `COc1cc(OC)cc(Oc2nc3cc(N)cc(N)c3nc2-c2ccccc2)c1` reads 18.2

Given item `COc1cc(CNc2nc3cc(N)cc(N)c3nc2-c2ccccc2)cc(OC)c1` , the value recorded as its TGI is 30.9

Entry under test: `COc1ccc(CNc2nc3cc(N)cc(N)c3nc2-c2ccccc2)cc1OC` . Its TGI was 26.3

response.value for `Nc1cc(N)c2nc(-c3ccccc3)c(Oc3ccc(F)cc3)nc2c1` (field: TGI) = 33.1

// data source = ChEMBL document CHEMBL1137710
